- target.under.test: GluA2Qflip AMPA receptor subunit (Rattus norvegicus, UniProt P19491-2 P19491-2:22-883)
- Sequence (P19491 other isoform, or with tags, fused parts or gaps): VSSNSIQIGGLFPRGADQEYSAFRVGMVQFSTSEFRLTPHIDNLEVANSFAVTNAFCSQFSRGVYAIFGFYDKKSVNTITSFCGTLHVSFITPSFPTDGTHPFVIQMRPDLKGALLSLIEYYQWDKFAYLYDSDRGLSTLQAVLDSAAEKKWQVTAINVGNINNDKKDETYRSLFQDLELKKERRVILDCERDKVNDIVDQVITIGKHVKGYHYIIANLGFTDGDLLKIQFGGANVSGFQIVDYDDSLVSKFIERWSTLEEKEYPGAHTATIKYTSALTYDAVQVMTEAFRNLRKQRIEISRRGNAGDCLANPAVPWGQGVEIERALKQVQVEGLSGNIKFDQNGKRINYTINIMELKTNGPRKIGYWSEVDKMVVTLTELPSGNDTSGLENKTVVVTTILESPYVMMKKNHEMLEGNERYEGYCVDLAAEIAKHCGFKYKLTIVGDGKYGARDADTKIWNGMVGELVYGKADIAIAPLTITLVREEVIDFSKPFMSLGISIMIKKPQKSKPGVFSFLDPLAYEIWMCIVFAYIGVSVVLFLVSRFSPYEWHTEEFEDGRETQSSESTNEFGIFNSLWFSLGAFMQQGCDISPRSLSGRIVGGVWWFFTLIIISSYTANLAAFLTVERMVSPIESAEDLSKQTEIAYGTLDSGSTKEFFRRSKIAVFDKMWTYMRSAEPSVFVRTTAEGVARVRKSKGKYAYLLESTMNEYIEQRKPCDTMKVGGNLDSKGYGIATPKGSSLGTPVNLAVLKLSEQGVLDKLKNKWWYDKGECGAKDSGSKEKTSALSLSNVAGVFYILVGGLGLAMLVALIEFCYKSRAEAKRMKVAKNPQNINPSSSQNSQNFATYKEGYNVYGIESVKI
- experiment.description: competition; open-channel conformation; homologous competition with radiolabeled AF44
- condition.context: chain copies: 4 (inferred)

{"binder": "GGGAGAAUUCAACUGCCACGGAUAAUAGCCAAUACUACAACCGU (ssRNA) [AF44 (A22)]", "Kd": "48 nM"}
